B1: OAS1 (parent)
chain: TPAKSLDKFIEDYLLPDTCFRMQI

Variants of: B1
Test: protein stability index of a GFP-peptide fusion (GPS, HEK-293T) (PSI 1-6); higher = more stable;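 note: lentivirally expressed fusions sorted by FACS into six bins by GFP to DsRed ratio, PSI derived from sequencing read proportions per bin multiplied by bin number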
Conditions: c terminus: a fixed tail appended
Decide by protein stability index: equal to or exceeding 3 means criterion met, less means criterion not met.

   variant_spec     assigned_label
0          R21Y  criterion not met
1          L14P  criterion not met
2          D17S  criterion not met

Q: Decide: protein stability index of S5I >= 3?
A: criterion not met

Q: Decide: protein stability index of L6N >= 3?
A: criterion not met

Q: Decide: protein stability index of T1I >= 3?
A: criterion not met

Q: Decide: protein stability index of P16Y >= 3?
A: criterion not met

Q: Decide: protein stability index of A3S >= 3?
A: criterion not met
